Molecular target: hCES1A (Homo sapiens, UniProt P23141)
Construct: tissue Bioreclamation IVT lot no; X008067; host or cells: pooled human liver microsomes (50 donors)
Sequence (P23141 18-567): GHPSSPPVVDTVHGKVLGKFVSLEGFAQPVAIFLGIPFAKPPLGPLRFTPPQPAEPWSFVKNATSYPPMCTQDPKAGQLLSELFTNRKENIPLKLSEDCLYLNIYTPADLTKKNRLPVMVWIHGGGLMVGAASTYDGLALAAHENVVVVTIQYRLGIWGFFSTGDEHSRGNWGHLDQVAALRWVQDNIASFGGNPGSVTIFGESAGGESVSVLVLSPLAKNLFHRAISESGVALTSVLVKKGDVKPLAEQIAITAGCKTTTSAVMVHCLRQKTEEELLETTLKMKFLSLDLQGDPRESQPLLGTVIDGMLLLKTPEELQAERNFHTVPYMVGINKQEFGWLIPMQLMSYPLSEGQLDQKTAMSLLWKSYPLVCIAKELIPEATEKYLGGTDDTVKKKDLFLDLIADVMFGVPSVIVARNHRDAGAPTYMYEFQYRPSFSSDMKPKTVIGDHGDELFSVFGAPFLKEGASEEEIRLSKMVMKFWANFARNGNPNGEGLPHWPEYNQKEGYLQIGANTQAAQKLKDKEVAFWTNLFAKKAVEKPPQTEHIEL
Test: hCES1A inhibition assay (DME hydrolysis in HLM)
Assay type: biochemical
Conditions: HLM, ginsenoside 100 μM, result in words
Value kind: inhibition of hCES1A-mediated DME hydrolysis (residual activity screen)

* CC(C)=CCC[C@](C)(O)[C@H]1CC[C@]2(C)[C@@H]1[C@H](O)C[C@@H]1[C@@]3(C)CC[C@H](O)C(C)(C)[C@@H]3[C@@H](O[C@@H]3O[C@H](CO)[C@@H](O)[C@H](O)[C@H]3O[C@@H]3O[C@@H](C)[C@H](O)[C@@H](O)[C@H]3O)C[C@]12C [Rg2, ginsenoside Rg2] | hardly inhibit
* CC(C)=CCC[C@](C)(O[C@@H]1O[C@H](CO)[C@@H](O)[C@H](O)[C@H]1O)[C@H]1CC[C@]2(C)[C@@H]1[C@H](O)C[C@@H]1[C@@]3(C)CC[C@H](O)C(C)(C)[C@@H]3[C@@H](O[C@@H]3O[C@H](CO)[C@@H](O)[C@H](O)[C@H]3O)C[C@]12C [Rg1, ginsenoside Rg1] | hardly inhibit
* CC(C)=CCC[C@](C)(O[C@@H]1O[C@H](CO[C@@H]2OC[C@H](O)[C@H](O)[C@H]2O)[C@@H](O)[C@H](O)[C@H]1O)[C@H]1CC[C@]2(C)[C@@H]1[C@H](O)C[C@@H]1[C@@]3(C)CC[C@H](O[C@@H]4O[C@H](CO)[C@@H](O)[C@H](O)[C@H]4O[C@@H]4O[C@H](CO)[C@@H](O)[C@H](O)[C@H]4O)C(C)(C)[C@@H]3CC[C@]12C [Rb2] | hardly inhibit

###

Provide the reported Specificity (hCES1A/hCES2A) of each item.
Biological target: hCES2A (Homo sapiens)
Construct: tissue Bioreclamation IVT lot no; X008067; host or cells: pooled human liver microsomes (50 donors)
Sequence (O00748 27-559): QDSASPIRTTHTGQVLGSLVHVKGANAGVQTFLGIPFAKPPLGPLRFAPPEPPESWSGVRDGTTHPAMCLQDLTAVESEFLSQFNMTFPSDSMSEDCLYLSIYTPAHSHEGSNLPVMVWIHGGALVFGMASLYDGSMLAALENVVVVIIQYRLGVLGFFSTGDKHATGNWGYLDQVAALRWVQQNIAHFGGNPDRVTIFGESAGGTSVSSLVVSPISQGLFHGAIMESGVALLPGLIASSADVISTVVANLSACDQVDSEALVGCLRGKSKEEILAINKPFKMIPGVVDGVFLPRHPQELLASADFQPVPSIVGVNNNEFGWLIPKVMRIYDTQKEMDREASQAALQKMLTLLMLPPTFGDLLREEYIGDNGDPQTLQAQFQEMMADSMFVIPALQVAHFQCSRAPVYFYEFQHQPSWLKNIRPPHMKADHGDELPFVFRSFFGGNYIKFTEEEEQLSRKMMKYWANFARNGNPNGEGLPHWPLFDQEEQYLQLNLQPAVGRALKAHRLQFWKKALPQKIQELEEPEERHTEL
Test: hCES2A inhibition assay (FD hydrolysis in HLM)
Assay type: biochemical
Details: ratio of IC50 values in HLM

Ask | Specify measured Specificity (hCES1A/hCES2A) for `CC(C)=CCC[C@](C)(O)[C@H]1CC[C@]2(C)[C@@H]1[C@H](O)C[C@@H]1[C@@]3(C)CC[C@H](O)C(C)(C)[C@@H]3CC[C@]12C` .
Reply | > 75.18

Ask | Specify measured Specificity (hCES1A/hCES2A) for CC(C)=CCC[C@](C)(O[C@@H]1O[C@H](CO)[C@@H](O)[C@H](O)[C@H]1O)[C@H]1CC[C@]2(C)[C@@H]1[C@H](O)C[C@@H]1[C@@]3(C)CC[C@H](O)C(C)(C)[C@@H]3[C@@H](O)C[C@]12C [F1, ginsenoside F1] .
Reply | > 2.70

Ask | Specify measured Specificity (hCES1A/hCES2A) for `CC1(C)CCC[C@](C)([C@H]2CC[C@]3(C)[C@@H]2[C@H](O)C[C@@H]2[C@@]4(C)CC[C@H](O)C(C)(C)[C@@H]4CC[C@]23C)O1` .
Reply | 1.84

Ask | Specify measured Specificity (hCES1A/hCES2A) for `CC(C)=CCC[C@](C)(O)[C@H]1CC[C@]2(C)[C@@H]1CC[C@@H]1[C@@]3(C)CC[C@H](O)C(C)(C)[C@@H]3CC[C@]12C` .
Reply | 3.06

Ask | Specify measured Specificity (hCES1A/hCES2A) for `CC(C)=CCC[C@](C)(O[C@@H]1O[C@H](CO)[C@@H](O)[C@H](O)[C@H]1O)[C@H]1CC[C@]2(C)[C@@H]1[C@H](O)C[C@@H]1[C@@]3(C)CC[C@H](O[C@@H]4O[C@H](CO)[C@@H](O)[C@H](O)[C@H]4O[C@@H]4O[C@H](CO)[C@@H](O)[C@H](O)[C@H]4O)C(C)(C)[C@@H]3CC[C@]12C` .
Reply | > 7.12

Ask | Specify measured Specificity (hCES1A/hCES2A) for CC(C)=CC/C=C(/C)C1CC[C@]2(C)C1[C@H](O)CC1[C@@]3(C)CC[C@H](O)C(C)(C)C3[C@@H](O[C@@H]3O[C@H](CO)[C@@H](O)[C@H](O)[C@H]3O[C@@H]3O[C@@H](C)[C@H](O)[C@@H](O)[C@H]3O)C[C@]12C (stereo partly drawn) .
Reply | > 2.22

###

Target: hCES2A (Homo sapiens)
Construct: tissue Bioreclamation IVT lot no; X008067; host or cells: pooled human liver microsomes (50 donors)
Experiment: hCES2A inhibition assay (FD hydrolysis in HLM);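 also: HLM at 1 µg/mL in 0.1 M PBS pH 7.4, kinetic read at 37 °C every 30 s over 30 min, triplicate runs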
Type: biochemical
Conditions: HLM as enzyme source, FD hydrolysis as probe reaction; read-out: IC50 (μM) hCES2A
Provide the reported IC50 of each item.

Ask | Give IC50 for this entry on hCES2A (Homo sapiens): CC(C)=CCC[C@](C)(O[C@@H]1O[C@H](CO)[C@@H](O)[C@H](O)[C@H]1O)[C@H]1CC[C@]2(C)[C@@H]1[C@H](O)C[C@@H]1[C@@]3(C)CC[C@H](O)C(C)(C)[C@@H]3[C@@H](O[C@@H]3O[C@H](CO)[C@@H](O)[C@H](O)[C@H]3O)C[C@]12C [Rg1, ginsenoside Rg1]
Reply | > 100 µM

Ask | Give IC50 for this entry on hCES2A (Homo sapiens): CC(C)=CCC[C@](C)(O)[C@H]1CC[C@]2(C)[C@@H]1[C@H](O)C[C@@H]1[C@@]3(C)CC[C@H](O)C(C)(C)[C@@H]3[C@@H](O[C@@H]3O[C@H](CO)[C@@H](O)[C@H](O)[C@H]3O[C@@H]3O[C@@H](C)[C@H](O)[C@@H](O)[C@H]3O)C[C@]12C [Rg2, ginsenoside Rg2]
Reply | > 100 µM

Ask | Give IC50 for this entry on hCES2A (Homo sapiens): CC(C)=CCC[C@](C)(O[C@@H]1O[C@H](CO[C@@H]2OC[C@@H](O)[C@H](O)[C@H]2O)[C@@H](O)[C@H](O)[C@H]1O)[C@H]1CC[C@]2(C)[C@@H]1[C@H](O)C[C@@H]1[C@@]3(C)CC[C@H](O[C@@H]4O[C@H](CO)[C@@H](O)[C@H](O)[C@H]4O[C@@H]4O[C@H](CO)[C@@H](O)[C@H](O)[C@H]4O)C(C)(C)[C@@H]3CC[C@]12C [Rb3]
Reply | > 100 µM

###

Biological target: hCES1A (Homo sapiens, UniProt P23141)
Construct: tissue Bioreclamation IVT lot no; X008067; host or cells: pooled human liver microsomes (50 donors)
Test: hCES1A inhibition assay (DME hydrolysis in HLM)
Assay type: biochemical
Details: HLM as enzyme source, DME hydrolysis as probe reaction; read-out: IC50 (μM) hCES1A
Value kind: IC50 (µM)
Hi! Could you send only the number? It should be in µM, unit omitted.

Ask | Specify measured IC50 for CC(C)=CCC[C@](C)(O[C@@H]1O[C@H](CO)[C@@H](O)[C@H](O)[C@H]1O)C1CC[C@]2(C)C1CCC1[C@@]3(C)CC[C@H](O)C(C)(C)C3CC[C@]12C (stereo partly drawn) [DMG, 20S-O-β-(D-glucosyl)-dammarenediol II] .
Reply | 1.76

Ask | Specify measured IC50 for `CC(C)=CCC[C@](C)(O)[C@H]1CC[C@]2(C)[C@@H]1CC[C@@H]1[C@@]3(C)CC[C@H](O)C(C)(C)[C@@H]3CC[C@]12C` .
Reply | 1.99

###

Provide the reported IC50 of each item.
Target: hCES1A (Homo sapiens, UniProt P23141)
Construct: tissue Bioreclamation IVT lot no; X008067; host or cells: pooled human liver microsomes (50 donors)
Assay: hCES1A inhibition assay (DME hydrolysis in HLM);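 also: Read-out is D-luciferin luminescence formed from DME (3 µM) after 10 min at 37 °C in pH 6.5 PBS, HLM 1 µg/mL, inhibitor preincubated 3 min, oleanic acid as positive control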
Type: biochemical
Details: HLM as enzyme source, DME hydrolysis as probe reaction; read-out: IC50 (μM) hCES1A

Ask | Specify measured IC50 for `CC1(C)CCC[C@](C)([C@H]2CC[C@]3(C)[C@@H]2[C@H](O)C[C@@H]2[C@@]4(C)CC[C@H](O)C(C)(C)[C@@H]4CC[C@]23C)O1` .
Reply | 6.95 µM

Ask | Specify measured IC50 for `CC(C)=CCC[C@](C)(O[C@@H]1O[C@H](CO)[C@@H](O)[C@H](O)[C@H]1O)[C@H]1CC[C@]2(C)[C@@H]1[C@H](O)C[C@@H]1[C@@]3(C)CC[C@H](O[C@@H]4O[C@H](CO)[C@@H](O)[C@H](O)[C@H]4O)C(C)(C)[C@@H]3CC[C@]12C` .
Reply | > 100 µM

Ask | Specify measured IC50 for CC(C)=CCC[C@](C)(O[C@@H]1O[C@H](CO)[C@@H](O)[C@H](O)[C@H]1O)[C@H]1CC[C@]2(C)[C@@H]1[C@H](O)C[C@@H]1[C@@]3(C)CC[C@H](O)C(C)(C)[C@@H]3[C@@H](O[C@@H]3O[C@H](CO)[C@@H](O)[C@H](O)[C@H]3O)C[C@]12C [Rg1, ginsenoside Rg1] .
Reply | > 100 µM
